# assaySystem: Nitric oxide synthase, inducible (Mus musculus) (UniProt P29477)
# Sequence (P29477 whole entry): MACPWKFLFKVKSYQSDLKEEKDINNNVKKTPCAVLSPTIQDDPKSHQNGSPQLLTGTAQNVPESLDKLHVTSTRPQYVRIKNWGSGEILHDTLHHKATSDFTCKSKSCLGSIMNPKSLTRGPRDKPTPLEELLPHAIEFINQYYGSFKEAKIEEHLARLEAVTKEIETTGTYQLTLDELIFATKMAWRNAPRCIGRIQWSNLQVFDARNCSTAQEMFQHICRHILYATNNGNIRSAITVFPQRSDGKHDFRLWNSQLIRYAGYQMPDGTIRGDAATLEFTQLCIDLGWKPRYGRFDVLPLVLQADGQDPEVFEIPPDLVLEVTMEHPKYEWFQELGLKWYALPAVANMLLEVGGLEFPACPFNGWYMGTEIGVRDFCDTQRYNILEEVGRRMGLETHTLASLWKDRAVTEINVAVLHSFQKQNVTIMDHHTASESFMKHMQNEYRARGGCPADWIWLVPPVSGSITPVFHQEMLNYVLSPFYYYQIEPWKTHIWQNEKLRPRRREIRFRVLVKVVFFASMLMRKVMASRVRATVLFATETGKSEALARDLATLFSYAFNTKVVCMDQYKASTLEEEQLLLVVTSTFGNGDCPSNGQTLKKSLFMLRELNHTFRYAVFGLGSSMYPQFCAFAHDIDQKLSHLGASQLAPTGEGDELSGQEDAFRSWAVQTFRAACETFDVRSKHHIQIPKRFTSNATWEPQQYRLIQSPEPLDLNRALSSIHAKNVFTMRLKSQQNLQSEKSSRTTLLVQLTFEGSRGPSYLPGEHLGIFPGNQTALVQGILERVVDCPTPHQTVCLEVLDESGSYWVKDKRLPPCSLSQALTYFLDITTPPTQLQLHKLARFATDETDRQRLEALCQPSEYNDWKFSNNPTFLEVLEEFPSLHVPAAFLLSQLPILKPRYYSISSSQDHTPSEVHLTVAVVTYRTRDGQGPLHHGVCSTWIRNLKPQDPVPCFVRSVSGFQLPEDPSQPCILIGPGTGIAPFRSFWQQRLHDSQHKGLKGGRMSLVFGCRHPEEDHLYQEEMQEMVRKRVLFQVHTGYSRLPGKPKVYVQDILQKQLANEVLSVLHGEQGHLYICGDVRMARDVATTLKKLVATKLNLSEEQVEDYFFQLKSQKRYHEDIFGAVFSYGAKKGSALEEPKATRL
# experimentalProtocol: Inhibition of iNOS in Mus musculus (mouse) RAW 264.7 cells assessed as inhibition of LPS-induced nitrite production pretreated for 24 hr before stimulation with LPS measured after 18 hr by […]
# Design: concentration or dose not given beside the values
# reportedConditions: concentration not given here
experimentalEndpoint: inhibition (%)

O=C1c2ccccc2C(=O)N1c1ccccc1 [N-PHENYL-PHTHALIMIDE]
89.2
O=C1C2C3C=CC(CC3)C2C(=O)N1c1ncc(Cl)cc1Cl (configuration not stated)
77.9
Nc1cccc(N2C(=O)c3cccc4cccc(c34)C2=O)c1
81.4
O=C1c2ccccc2C(=O)N1c1ccc(Cl)cn1
94.5
Cc1ccc2c(c1)C(=O)N(c1ccc(-c3ccccc3)cc1)C2=O
70.9
O=C1C2C3C=CC(CC3)C2C(=O)N1c1ccccc1 (configuration not stated)
82
O=C1C2C3C=CC(CC3)C2C(=O)N1c1ccc(-c2ccccc2)cc1 (configuration not stated)
86.6
COc1ccc(N2C(=O)c3ccccc3C2=O)cc1
87.3
O=C1c2ccccc2C(=O)N1c1ccc(-c2ccccc2)cc1
84.6
Nc1ccc(N2C(=O)[C@@H]3C4C=CC(CC4)[C@@H]3C2=O)cc1
87.9
N#Cc1ccccc1N1C(=O)c2ccccc2C1=O
80.1
Cc1cccc2c1C(=O)N(Cc1ccc(N)cc1)C2=O
80.7

---

# System: HEp-2
# experimentalProtocol: Cytotoxicity against Homo sapiens (human) Hep2 cells after 24 hr by MTT assay
# Assay type: functional, cell-based
# reportedConditions: HEp-2, 24 h
experimentalEndpoint: IC50 (µM)
State the answer as a number, implicitly in µM.

Use the examples below as a reference point.
Cc1ccc2c(c1)C(=O)N(c1ccc(/N=N\c3ccccc3)cc1)C2=O
104
O=C1c2ccccc2C(=O)N1c1ccccc1N1C(=O)c2ccccc2C1=O
56.8
Nc1ccccc1N1C(=O)C2C3C=CC(CC3)C2C1=O (stereo unspecified)
32.5
O=C1C2C3C=CC(CC3)C2C(=O)N1c1ccc(Br)cn1 (stereo unspecified)
150
O=C1c2cccc3cccc(c23)C(=O)N1c1ccccc1
44.2

### Prompt API: value(readout=IC50, system=HEp-2) for record O=C1C2C3C=CC(CC3)C2C(=O)N1c1ccc(-c2ccccc2)cc1 (stereo unspecified)
### Response 46.3

### Prompt How about Nc1cccc(N2C(=O)C3C4C=CC(CC4)C3C2=O)c1 (stereo unspecified) ?
### Response 53.4

### Prompt Same again, this time with Nc1cccc(N2C(=O)c3cccc4cccc(c34)C2=O)c1
### Response 147

---

# assaySystem: Nitric oxide synthase, inducible (Mus musculus) (UniProt P29477)
# experimentalProtocol: Inhibition of iNOS in Mus musculus (mouse) RAW 264.7 cells assessed as inhibition of LPS-induced nitrite production pretreated for 24 hr before stimulation with LPS measured after 18 hr by […]
# Design: concentration or dose not given beside the values
# reportedConditions: concentration not given here
experimentalEndpoint: inhibition (%)

1: O=C1C2C3C=CC(CC3)C2C(=O)N1c1ccc(S)cc1 (stereo unspecified)
2: O=C1C2C3C=CC(CC3)C2C(=O)N1c1ccc(Cl)cn1 (stereo unspecified)
### Prompt For the two items 1 and 2 , which reports the higher inhibition value? // respond with label for picked entry
### Response 1
(1: 87.9%, 2: 44.9%)

1: O=C1c2ccccc2C(=O)N1c1ccccc1N1C(=O)c2ccccc2C1=O
2: O=C1C2C3C=CC(CC3)C2C(=O)N1c1ccc(Br)cn1 (stereo unspecified)
### Prompt Would you let me know which has the greater inhibition value, 1 or 2 ? Reply with the label of the item you choose.
### Response 1
(1: 85.3%, 2: 56.6%)
